Tested on: non-cancerous human lung fibroblast cells (HLF)
Assay method text: Cytotoxicity, CellTiter Glo assay, non-cancerous human lung fibroblast cells
Format: cell-based
Condition description: Homo sapiens, Fibroblast, 72 h, read-out: IC50 Non-cancerous HLF
Property: IC50 (µM)
Write the value in µM as a bare number.

Name the recorded IC50 of the compound listed here: O=C1CC(c2ccccc2)=NN1c1ccc(Cl)cc1 [P5]
0.99

Name the recorded IC50 of the compound listed here: CN(C)C/C=C/C(=O)Nc1cc2c(Nc3ccc(F)c(Cl)c3)ncnc2cc1O[C@H]1CCOC1 [PC-1, Afatinib, reference compound]
12.2

Name the recorded IC50 of the compound listed here: O=C1CC(c2ccc(Br)cc2)=NN1c1ccc(C(F)(F)F)cc1 [P16]
1.45

Name the recorded IC50 of the compound listed here: O=C1CC(c2ccccc2)=NN1c1ccccc1 [P3]
25.1

Name the recorded IC50 of the compound listed here: O=C1CC(c2cc(F)c(F)c(F)c2F)=NN1c1ccccc1 [P12]
8.52

Name the recorded IC50 of the compound listed here: O=C1CC(c2ccc(F)cc2)=NN1c1ccccc1 [P8]
17.7

Name the recorded IC50 of the compound listed here: O=C1CC(c2ccc(Br)cc2)=NN1c1ccc(Br)cc1 [P14]
2.55

Name the recorded IC50 of the compound listed here: O=C1CC(c2ccc(F)cc2)=NN1c1ccc(Br)cc1 [P13]
3.57

Name the recorded IC50 of the compound listed here: O=C1CC(c2ccc(Br)cc2)=NN1c1cc(Cl)cc(Cl)c1 [P17]
6.94
